pIC50: −log10 of the molar value.
// compounds with reported pIC50 on FBXL10 (Homo sapiens (Human), UniProt Q8NHM5), multi-publication

For orientation, consider the following solved cases.
• COc1ccc(CCCN(CC(=O)N2CCCCC2)Cc2cc(C(=O)O)ccn2)cc1 = 5.60 to 6.60
• c1ccc2c(c1)CCCC2Cn1cnc(-c2cc(-c3c[nH]nn3)ccn2)c1 (stereo not shown) = ≥ 7.00
• O=Cc1ccnc(CNCCCN2CCCC2)c1 = < 5.60
• CCN1CCN(C2=NCCN2S(=O)(=O)c2ccc(F)cc2F)CC1 = 8.20
• CN(C)C/C=C\CNCc1cc(C=O)ccn1 = < 5.60

Ask: Suppose we examine the compound `CN1CCC(Cn2cnc(-c3cc(C(=O)O)ccn3)c2)CC1` ; what pIC50 value has been reported?
Result: 5.00 to 6.00

Ask: Now this one: `CCN(CCN(C)C)C(=O)CNCc1cc(C(=O)N2CCOC2=O)ccn1`
Result: ≤ 6.00

Ask: Input `O=C(CNCc1cc(/C=N/C2CC2)ccn1)N1CCC[C@@H]1CN1CCCC1`
Result: < 5.60

Ask: Same thing, different compound: `Cn1cnc(-c2cc(-c3nn[nH]n3)ccn2)c1-c1ccc(F)cc1OCc1ccccc1`
Result: ≥ 7.00

Ask: Param item: `CN1CCC(CNCc2cc(C=O)ccn2)CC1`
Result: < 5.60

----------
The molecules below each have a reported IC50 tested on FBXL10 (Homo sapiens (Human), UniProt Q8NHM5); the values come from various publications.

* Cc1cc(O)n(-c2cc(C(=O)O)ccn2)n1 | 100 to 1000 nM
* CC(N[C@@H](C)c1nccs1)c1cc(C(=O)O)ccn1 (some centres unmarked) | 250 to 2500 nM
* CC(C)C[C@H](NCc1cc(C(=O)O)ccn1)C(=O)NCC1CCS(=O)(=O)C1 (some centres unmarked) | 250 to 2500 nM

Ask: For the molecule `Clc1cccc(Cn2cnc(-c3cc(-c4nn[nH]n4)ccn3)c2)c1Cl` , what IC50 is on record?
Result: ≤ 100 nM

Ask: Repeat for the following molecule: `Cn1cnc(-c2cc(C(=O)O)ccn2)c1-c1ccc(Cl)c(Cl)c1`
Result: 100 to 1000 nM

----------
Multiple publications report IC50 for FBXL10 (Homo sapiens (Human), UniProt Q8NHM5); what follows is a combined list.

Please review the entries below; each comes with its answer.
- CC(C)c1ccc(S(=O)(=O)N2CCN=C2N2CCN(C3CC(F)C3)CC2)cc1 (stereo not drawn): 0.000391 µM
- Cn1cnc(-c2cc(-c3nn[nH]c3C#N)ccn2)c1-c1ccc(F)cc1OCC1CC1: ≤ 0.1 µM

# ---- query compound ----
Ask: Entry under review: `CCN(CC(C)(C)N(C)C)C(=O)CNCc1cc(C=O)ccn1` . Reported IC50?
Result: > 2.5 µM

----------
Field IC50: reported value for UniProtKB Q8NHM5; entries drawn from several documents.

Please review the entries below; each comes with its answer.
• CN(C)CC1CCC(CNCc2cc(C=O)ccn2)CC1 (stereo not drawn) = > 2500 nM
• O=S(=O)(c1ccc(-c2ccccc2O)cc1)N1CCN=C1N1CCN(C2CCC2)CC1 = 0.037 nM
• CN(C)CC1CCN(Cc2cc(C(=O)O)ccn2)Cc2nccn21 (stereo not drawn) = > 2500 nM
• N#Cc1ccc(COc2ccnn2-c2cc(C(=O)O)ccn2)cc1 = 1000 to 10000 nM
• CC(C)(Cn1cnc(-c2cc(-c3c[nH]nn3)ccn2)c1)c1ccccc1Cl = ≤ 100 nM
• O=C(O)c1ccnc(-n2nc(C3CCCC3)cc2O)c1 = < 100 nM
• O=C(O)c1ccnc(-c2cn(CCc3ccccc3F)cn2)c1 = ≤ 100 nM
• O=C(O)c1ccnc(-c2cn(CCN3Cc4ccc(C(F)(F)F)cc4C3)cn2)c1 = ≤ 100 nM

Consider the record given below.
Ask: Dear colleague, I am looking for the recorded IC50 of the following molecule: `Cn1cnc(-c2cc(-c3nn[nH]n3)ccn2)c1-c1ccc(Cl)c(OCc2ccccc2)c1`
Result: ≤ 100 nM
